# systemUnderTest: human voltage-gated sodium channel Nav1.7 (human) (UniProt Q15858)
# Sequence (Q15858 whole entry): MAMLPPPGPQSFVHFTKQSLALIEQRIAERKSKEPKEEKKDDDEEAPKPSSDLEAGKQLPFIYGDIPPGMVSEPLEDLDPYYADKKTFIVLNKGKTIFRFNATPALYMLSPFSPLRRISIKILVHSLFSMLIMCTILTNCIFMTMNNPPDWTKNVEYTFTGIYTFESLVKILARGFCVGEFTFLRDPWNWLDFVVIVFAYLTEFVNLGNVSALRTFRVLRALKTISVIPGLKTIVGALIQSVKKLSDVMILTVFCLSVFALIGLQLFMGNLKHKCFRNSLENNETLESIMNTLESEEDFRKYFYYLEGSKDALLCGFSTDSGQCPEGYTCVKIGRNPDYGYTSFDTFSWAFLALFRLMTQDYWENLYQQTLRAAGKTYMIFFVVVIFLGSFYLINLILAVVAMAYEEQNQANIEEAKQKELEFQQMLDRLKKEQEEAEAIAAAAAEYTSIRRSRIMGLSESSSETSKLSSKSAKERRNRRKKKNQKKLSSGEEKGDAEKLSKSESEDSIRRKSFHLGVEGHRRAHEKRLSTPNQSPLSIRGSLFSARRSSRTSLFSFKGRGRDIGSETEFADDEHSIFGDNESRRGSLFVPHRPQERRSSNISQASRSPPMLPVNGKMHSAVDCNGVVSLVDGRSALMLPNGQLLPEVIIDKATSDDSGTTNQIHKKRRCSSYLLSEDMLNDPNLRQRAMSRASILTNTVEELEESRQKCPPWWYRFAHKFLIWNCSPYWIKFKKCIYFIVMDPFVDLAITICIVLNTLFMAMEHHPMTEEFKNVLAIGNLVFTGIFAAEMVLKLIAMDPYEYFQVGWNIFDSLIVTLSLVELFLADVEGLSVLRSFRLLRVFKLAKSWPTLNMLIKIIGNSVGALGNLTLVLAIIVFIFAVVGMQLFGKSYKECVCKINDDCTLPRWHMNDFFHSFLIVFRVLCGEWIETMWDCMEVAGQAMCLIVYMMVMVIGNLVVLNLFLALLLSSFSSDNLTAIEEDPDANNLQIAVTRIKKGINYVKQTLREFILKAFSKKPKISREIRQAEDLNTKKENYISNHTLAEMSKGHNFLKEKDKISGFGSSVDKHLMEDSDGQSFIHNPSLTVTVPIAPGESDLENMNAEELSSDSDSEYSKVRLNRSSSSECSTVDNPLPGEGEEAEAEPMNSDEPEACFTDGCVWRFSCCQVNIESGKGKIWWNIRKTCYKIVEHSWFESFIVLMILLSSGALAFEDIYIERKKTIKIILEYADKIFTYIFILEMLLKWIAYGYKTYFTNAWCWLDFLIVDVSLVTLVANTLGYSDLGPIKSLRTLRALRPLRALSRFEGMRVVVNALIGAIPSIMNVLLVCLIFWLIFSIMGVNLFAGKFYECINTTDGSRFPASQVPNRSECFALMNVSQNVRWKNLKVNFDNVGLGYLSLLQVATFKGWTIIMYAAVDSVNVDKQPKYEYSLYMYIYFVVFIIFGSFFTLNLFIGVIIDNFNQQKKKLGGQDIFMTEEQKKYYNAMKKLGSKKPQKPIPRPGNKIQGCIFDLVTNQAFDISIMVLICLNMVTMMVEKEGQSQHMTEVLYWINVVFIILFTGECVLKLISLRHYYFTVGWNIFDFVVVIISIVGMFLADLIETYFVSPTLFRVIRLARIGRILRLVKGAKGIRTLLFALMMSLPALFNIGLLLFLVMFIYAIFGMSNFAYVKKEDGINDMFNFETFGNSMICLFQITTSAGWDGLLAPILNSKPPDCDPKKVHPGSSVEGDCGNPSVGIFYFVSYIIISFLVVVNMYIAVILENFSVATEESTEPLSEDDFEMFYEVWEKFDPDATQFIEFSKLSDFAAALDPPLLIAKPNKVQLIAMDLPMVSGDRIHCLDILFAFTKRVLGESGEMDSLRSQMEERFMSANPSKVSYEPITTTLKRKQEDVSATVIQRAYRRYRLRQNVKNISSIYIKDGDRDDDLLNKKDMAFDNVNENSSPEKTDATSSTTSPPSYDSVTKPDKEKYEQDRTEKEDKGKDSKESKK
# experimentalProtocol: cell-based or functional assay
Non-standard residues stand in square brackets, D forms with d. No end group written: not given here. Abu = CC[C@H](N)C(=O)O
valueKind: IWQ Use Nav1.7 (µM) (IC50, IonWorks Quattro population patch clamp)
Unit µM implied. Number only.

• D[Abu]LG[Abu]LRKCIPDNDKC[Abu]RPNLVCSRTHEWCKYVF (ends and bridges not checked) [[2-Abu2,5,17;Leu6;Glu28]GpTx-1(1-34)] = 4.3

Lab note: next binder to report on.
For D[Abu]LGALRKCIPDNDKC[Abu]RPNLVCSRTHEWCKYVF (ends and bridges not checked) [[2-Abu2,17;Ala5;Leu6;Glu28]GpTx-1(1-34)] the binder record lists IWQ Use Nav1.7 (µM) (IC50, IonWorks Quattro population patch clamp) as 4.3
